System: A549 cell non-small cell lung cancer cell line
measurement_notes: growth inhibition of tumor cells in vitro, A549
Type: cell-based, human
conditions_used: A549 cell line; read-out: IC50 A549
pIC50: −log10 of the molar value.
assay_metric: pIC50

compound="CC[C@@]1(O)C(=O)OCc2c1cc1n(c2=O)Cc2c-1nc1cc3c(cc1c2CCc1cccc(N2CCOCC2)c1)OCO3 [Compound 14]" measured_number=7.72

----------
Catalogue of melting point values
assay_metric: melting point

sample_smiles=CC[C@@]1(O)C(=O)OCc2c1cc1n(c2=O)Cc2c-1nc1cc3c(cc1c2/C=C/C=C/c1ccccc1)OCO3 result="206 to 214 °C"
sample_smiles=CC[C@@]1(O)C(=O)OCc2c1cc1n(c2=O)Cc2c-1nc1cc3c(cc1c2/C=C/c1ccccc1F)OCO3 result="> 250 °C"
sample_smiles=CC[C@@]1(O)C(=O)OCc2c1cc1n(c2=O)Cc2c-1nc1cc3c(cc1c2CCc1ccc(N2CCCC2)c(F)c1)OCO3 result="> 250 °C"
sample_smiles=CC[C@@]1(O)C(=O)OCc2c1cc1n(c2=O)Cc2c-1nc1cc3c(cc1c2CCc1cccc(N2CCOCC2)c1)OCO3 result="163 to 165 °C"
sample_smiles=CC[C@@]1(O)C(=O)OCc2c1cc1n(c2=O)Cc2c-1nc1cc3c(cc1c2CCc1ccccc1N1CCCC1)OCO3 result="139 to 140 °C"
sample_smiles=CC[C@@]1(O)C(=O)OCc2c1cc1n(c2=O)Cc2c-1nc1cc3c(cc1c2CCc1ccc(N2CCSCC2)cc1)OCO3 result="154 to 156 °C"
sample_smiles=CC[C@@]1(O)C(=O)OCc2c1cc1n(c2=O)Cc2c-1nc1cc3c(cc1c2/C=C/c1ccc(F)cc1)OCO3 result="> 250 °C"
sample_smiles=CC[C@@]1(O)C(=O)OCc2c1cc1n(c2=O)Cc2c-1nc1cc3c(cc1c2CCc1cc(F)c(N2CCCC2)c(F)c1)OCO3 result="> 250 °C"
sample_smiles=CC[C@@]1(O)C(=O)OCc2c1cc1n(c2=O)Cc2c-1nc1cc3c(cc1c2CCc1cc(F)c(N2CCOCC2)c(F)c1)OCO3 result="246 to 247 °C"
sample_smiles=CC[C@@]1(O)C(=O)OCc2c1cc1n(c2=O)Cc2c-1nc1cc3c(cc1c2CCc1ccccc1N1CCOCC1)OCO3 result="> 250 °C"
sample_smiles=CC[C@@]1(O)C(=O)OCc2c1cc1n(c2=O)Cc2c-1nc1cc3c(cc1c2CCc1ccc(N2CCCCC2)cc1)OCO3 result="> 250 °C"
sample_smiles=CC[C@@]1(O)C(=O)OCc2c1cc1n(c2=O)Cc2c-1nc1cc3c(cc1c2/C=C/c1cccc(F)c1)OCO3 result="> 250 °C"
sample_smiles=CC[C@@]1(O)C(=O)OCc2c1cc1n(c2=O)Cc2c-1nc1cc3c(cc1c2N1CCOCC1)OCO3 result="> 250 °C"
sample_smiles=CC[C@@]1(O)C(=O)OCc2c1cc1n(c2=O)Cc2c-1nc1cc3c(cc1c2CCc1ccc(N2CCCC2)cc1)OCO3 result="205 to 207 °C"
sample_smiles=CC[C@@]1(O)C(=O)OCc2c1cc1n(c2=O)Cc2c-1nc1cc3c(cc1c2CCc1ccc(N2CCOCC2)c(F)c1)OCO3 result="> 250 °C"

These data points were gathered from patent US20220177485A1.
